Reference source for all entries: ChEMBL document CHEMBL1961873

- TARGET_OR_TEST_SYSTEM: Calcium/calmodulin-dependent protein kinase type 1D (Homo sapiens) (UniProt Q8IU85);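 note: reported figure is the mean percent inhibition of CAMK1D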
- Sequence (Q8IU85 whole entry, looked up): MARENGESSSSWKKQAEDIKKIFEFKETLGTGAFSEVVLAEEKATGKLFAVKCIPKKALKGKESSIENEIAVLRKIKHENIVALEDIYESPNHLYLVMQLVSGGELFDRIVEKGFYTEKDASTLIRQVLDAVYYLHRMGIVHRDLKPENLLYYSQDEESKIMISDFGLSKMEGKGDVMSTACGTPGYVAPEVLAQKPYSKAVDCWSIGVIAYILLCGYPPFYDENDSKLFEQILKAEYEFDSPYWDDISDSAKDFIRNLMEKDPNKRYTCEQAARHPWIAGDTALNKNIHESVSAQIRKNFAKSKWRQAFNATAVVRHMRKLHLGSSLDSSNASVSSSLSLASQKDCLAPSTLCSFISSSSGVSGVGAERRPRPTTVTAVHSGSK
- CONDITIONS: at 1 µM

COMPOUND | TARGET_OR_TEST_SYSTEM | inhibition (%)
CC1=C(C(=O)Nc2ccc3[nH]ncc3c2)C(c2ccc(F)cc2)N=C(c2ccc(C(F)(F)F)nc2)N1 (centres undefined) | Calcium/calmodulin-dependent protein kinase type 1D (Homo sapiens) (UniProt Q8IU85) | 1.37
NS(=O)(=O)c1ccc(N/N=C2\C(=O)Nc3ccc(C(=O)NCc4ccncc4)cc32)cc1 | Calcium/calmodulin-dependent protein kinase type 1D (Homo sapiens) (UniProt Q8IU85) | -0.33
CCS(=O)(=O)c1ccc(OC)c(Nc2ncc(-c3cccc(C(C)=O)c3)o2)c1 | Calcium/calmodulin-dependent protein kinase type 1D (Homo sapiens) (UniProt Q8IU85) | -0.69
OCCCNc1nccc(-c2c(-c3ccc(F)cc3)nn3cc(C(F)(F)F)ccc23)n1 | Calcium/calmodulin-dependent protein kinase type 1D (Homo sapiens) (UniProt Q8IU85) | 3.05
COc1ccccc1-c1cc(/C=C2\C(=O)Nc3ncc(Br)cc32)cc(Br)c1O | Calcium/calmodulin-dependent protein kinase type 1D (Homo sapiens) (UniProt Q8IU85) | 1.73
CCS(=O)(=O)c1ccc(OC)c(Nc2ncc(-c3cccc(F)c3)o2)c1 | Calcium/calmodulin-dependent protein kinase type 1D (Homo sapiens) (UniProt Q8IU85) | 2.56
FC(F)(F)CNc1nccc(-c2cnn3ncccc23)n1 | Calcium/calmodulin-dependent protein kinase type 1D (Homo sapiens) (UniProt Q8IU85) | 0.52
COC(=O)Nc1nc2ccc(Oc3ccc(NC(=O)Nc4cc(C(F)(F)F)ccc4F)cc3)cc2s1 | Calcium/calmodulin-dependent protein kinase type 1D (Homo sapiens) (UniProt Q8IU85) | 2.93
COc1cc(N2CCN(C(C)C)CC2)ccc1Nc1nc(Nc2cccc3ncccc23)c2cc[nH]c2n1 | Calcium/calmodulin-dependent protein kinase type 1D (Homo sapiens) (UniProt Q8IU85) | 17.8

---

- TARGET_OR_TEST_SYSTEM: Non-receptor tyrosine-protein kinase TNK1 (Homo sapiens) (UniProt Q13470);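 note: reported values are mean inhibition figures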
- Sequence (Q13470 whole entry): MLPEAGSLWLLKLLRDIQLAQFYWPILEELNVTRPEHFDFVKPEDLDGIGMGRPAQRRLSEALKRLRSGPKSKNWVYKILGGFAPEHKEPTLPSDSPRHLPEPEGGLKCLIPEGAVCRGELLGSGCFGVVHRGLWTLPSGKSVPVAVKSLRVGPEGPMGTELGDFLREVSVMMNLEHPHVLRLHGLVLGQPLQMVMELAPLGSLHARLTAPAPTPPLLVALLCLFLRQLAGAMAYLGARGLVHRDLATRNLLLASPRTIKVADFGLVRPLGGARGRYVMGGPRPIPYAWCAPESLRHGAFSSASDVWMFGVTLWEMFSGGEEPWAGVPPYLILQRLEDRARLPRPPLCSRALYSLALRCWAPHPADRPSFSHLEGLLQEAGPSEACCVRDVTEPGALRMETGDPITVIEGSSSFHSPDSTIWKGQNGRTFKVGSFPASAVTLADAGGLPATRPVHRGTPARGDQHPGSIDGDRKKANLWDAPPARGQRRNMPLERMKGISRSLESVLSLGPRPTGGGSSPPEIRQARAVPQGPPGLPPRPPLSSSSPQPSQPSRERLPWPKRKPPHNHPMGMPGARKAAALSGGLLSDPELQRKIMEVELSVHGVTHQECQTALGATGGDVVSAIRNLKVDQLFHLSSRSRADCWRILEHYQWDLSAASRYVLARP
- CONDITIONS: at 0.1 µM
Property: inhibition; scope: individual molecules

LINE_NOTATION | MEASUREMENT_UNITS | inhibition
CCN1CCC(C(=O)Nc2n[nH]c3nnc(-c4cccc(F)c4F)cc23)CC1 | % | 1.54
Cn1c(-c2nonc2N)nc2cnccc21 | % | 1.08
CCCNc1cccc(-n2ncc3c(N/N=C/c4ccncc4)ncnc32)c1 | % | 9.78
Cc1cc(O)cc(C)c1/C=C/c1cncc(C(=O)OC(C)(C)C)c1 | % | 2.08
CNC(=O)c1cncc(/C=C/c2ccccc2C)c1 | % | 3.86
CNC(=O)c1ncccc1Nc1nc(Nc2cc3c(cc2OC)CCCN3C(=O)CN(C)C)nc2[nH]ccc12 | % | 50
NC(=O)c1ccc2c(-c3ccnc(NCCCO)n3)c(-c3ccc(F)cc3)nn2c1 | % | 4.67
Fc1ccc(Nc2nccc(-c3c(-c4ccc(C(F)(F)F)cc4)nn4ncccc34)n2)cc1F | % | 3.85
CC(C)c1ccc(-c2cc(-c3c[nH]nc3-c3ccccn3)ccn2)cc1 | % | 0.85
CS(=O)(=O)CCNCc1ccc(-c2ccc3ncnc(Nc4ccc(OCc5cccc(C(F)(F)F)c5)cc4)c3c2)o1 | % | 0.64
